Molecular target: BRD4 Bromodomain 1 (BRD4 BD1) (Homo sapiens)
Construct: 44-168 and BRD4 BD2
Experiment: AlphaScreen binding assay, BRD4 BD1
Conditions: His-tagged BRD4 BD1 50 nM, biotinylated H4 (1-21) K5/8/12/16 tetra-acetylated peptide 50 nM, compounds listed under IC50 range headings
Protocol: The binding of Example compounds to BRD4 Bromodomain 1 and BRD4 Bromodomain 2 was assessed using 384-well AlphaScreen assay technology. His-epitope tagged BRD4 BD144-168 and BRD4 BD2333-460 were cloned, expressed, and purified to homogeneity. BRD4 BD1 and BRD4 BD2 binding and inhibition was assessed by monitoring the engagement of biotinylated Histone H4 (1-21) K5/8/12/16 tetra-acetylated peptide with the targets using the AlphaScreen technology (PerkinElmer). […]
measuredAttribute: IC50

For orientation, consider the following solved cases.
COC(=O)N1c2ccc(-c3csc(C4(O)CCNCC4)n3)c(OC3CCC3)c2CC[C@@H]1C [I-280]: 1000 to 10000 nM
C[C@H]1CCc2c(ccc(-c3cnn(C4CNC4)c3)c2Oc2cc(F)ccc2F)N1C(=O)C1CC1 [I-272]: 100 to 1000 nM
CC(=O)N1c2ccc(-c3cnn(C4CC4)c3)c(OC(F)C(N)=O)c2CC[C@@H]1C (single isomer, unassigned) [I-64]: ≥ 10000 nM
CC(=O)N1c2ccc(-c3cnn(C4CCNCC4)c3)c(Oc3ncc(C4CC4)cn3)c2CC[C@@H]1C [I-518]: 100 to 1000 nM
COC(=O)N1c2ccc(-c3cnn(C4CC4)c3)c(Oc3ncc(C4CC4)cn3)c2CC[C@@H]1C [I-573]: 1000 to 10000 nM
CC(=O)N1c2cccc(OCC3CCCC3)c2CC[C@@H]1C [I-607]: ≥ 10000 nM

Now, please, on to the next compound.
Output IC50 of CC(=O)N1c2ccc(-c3cnn(C4CCNCC4)c3)c(Oc3ccc(C#N)cc3)c2CC[C@@H]1C [I-140]
100 to 1000 nM

Hello, the source for this data is patent US10611750B2, in case you need it.
